Below, each of the compounds is paired with its reported log2 fold change value.
Target: AAK1 (UniProt A0A096LP25)
Experiment: log2 fold change, soluble protein after heating vs DMSO (PISA); higher = thermal stabilisation; K562 cells, 10 uM, 30 min; active = over 0.2 and 3.5 SD of the protein, either way, in both replicates (recomputed)
Of roughly 7,900 targets only a part is listed; those with a hit were picked by preference. About 0.6% of all pairs of compound and target were hits.
Please state the value as a number alone, without comment.

Here's what some known entries look like.
{"columns": ["COMPOUND", "TEST_READOUT", "READOUT_NUMBER"],
 "data": [
  ["CN1CC[C@H](c2c(O)cc(O)c3c(=O)cc(-c4ccccc4Cl)oc23)[C@H](O)C1 [alvocidib]", "log2 fold change", -0.009],
  ["Nc1ccccc1NC(=O)c1ccc(CNC(=O)OCc2cccnc2)cc1 [entinostat]", "log2 fold change", -0.061]
]}

Challenge: Quick one: log2 fold change of O=C1c2ccccc2-c2n[nH]c3cccc1c23 ?
Response given: 0.254

Challenge: Quick one: log2 fold change of Cc1cc(Nc2cc(CN3CCOCC3)c3nc(C)c(Cc4ccc(Cl)cc4F)n3n2)n[nH]1 [gandotinib] ?
Response given: 0.103

Challenge: Quick one: log2 fold change of C[C@@H](Oc1cc(-c2cnn(C3CCNCC3)c2)cnc1N)c1c(Cl)ccc(F)c1Cl [crizotinib] ?
Response given: 0.124

Challenge: Quick one: log2 fold change of Cc1ccc(-n2nc(C(C)(C)C)cc2NC(=O)Nc2ccc(OCCN3CCOCC3)c3ccccc23)cc1 [doramapimod] ?
Response given: -0.013

Challenge: Quick one: log2 fold change of COC(=O)[C@H](CCSC)NC(=O)c1ccc(NC[C@@H](N)CS)cc1-c1ccccc1 ?
Response given: 0.023

----------
Molecular target: AAK1 (UniProt A0A096LP25)
Test: log2 fold change, soluble protein after heating vs DMSO (PISA); higher = thermal stabilisation; K562 cells, 10 uM, 30 min; active = over 0.2 and 3.5 SD of the protein, either way, in both replicates (recomputed)
Targets with a hit are over-represented here; the source holds about 7,900 in all. About 0.6% of all pairs of compound and target were hits.
# if value of log2 fold change reaches -0.007, tag yes; if it stays below, tag no

Would you please look over these solved cases?
{"columns": ["COMPOUND", "STUDY_SYSTEM", "CATEGORY_LABEL"],
 "data": [
  ["O=C(O)c1ccc2c(c1)nc(Nc1cccc(Cl)c1)c1ccncc12", "AAK1 (UniProt A0A096LP25)", "no"],
  ["NC(=O)Nc1cc(-c2cccc(F)c2)sc1C(=O)N[C@H]1CCCNC1", "AAK1 (UniProt A0A096LP25)", "yes"],
  ["CO[C@H]1C[C@@H]2CC[C@@H](C)[C@@](O)(O2)C(=O)C(=O)N2CCCC[C@H]2C(=O)O[C@H]([C@H](C)C[C@@H]2CC[C@H](n3cnnn3)[C@H](OC)C2)CC(=O)[C@H](C)/C=C(\\C)[C@@H](O)[C@@H](OC)C(=O)[C@H](C)C[C@H](C)/C=C/C=C/C=C/1C", "AAK1 (UniProt A0A096LP25)", "no"],
  ["Cc1nc(Nc2ncc(C(=O)Nc3c(C)cccc3Cl)s2)cc(N2CCN(CCO)CC2)n1", "AAK1 (UniProt A0A096LP25)", "no"],
  ["CN1CCC(CNc2ccc3ncc(-c4cccc(OC(F)(F)F)c4)n3n2)CC1", "AAK1 (UniProt A0A096LP25)", "yes"]
]}

Challenge: For this compound, is measured log2 fold change -0.007 or higher? CC(=O)c1cnc2ccc(-c3cc(Cl)c(O)c(Cl)c3)nc2c1N[C@H]1CC[C@H](CN(C)C)CC1
Response given: yes

Challenge: For this compound, is measured log2 fold change -0.007 or higher? NC(=O)c1ccc2nc(-c3ccc(Oc4ccc(Cl)cc4)cc3)[nH]c2c1
Response given: yes

Challenge: For this compound, is measured log2 fold change -0.007 or higher? COc1cc(Nc2ncc3c(n2)-c2ccc(Cl)cc2C(c2c(F)cccc2OC)=NC3)ccc1C(=O)O
Response given: yes

Challenge: For this compound, is measured log2 fold change -0.007 or higher? O=C(Nc1nc2ccccc2n1CCN1CCOCC1)c1cccc([N+](=O)[O-])c1
Response given: no

Challenge: For this compound, is measured log2 fold change -0.007 or higher? CC[C@H](C)n1cc(C)c2c(C(=O)NCc3c(C)cc(C)[nH]c3=O)cc(-c3ccc(N4CCNCC4)nc3)cc21
Response given: yes

Challenge: For this compound, is measured log2 fold change -0.007 or higher? C[C@@H]1COCCN1c1cc(C2(S(C)(=O)=O)CC2)nc(-c2cccc3[nH]ccc23)n1
Response given: yes

Challenge: For this compound, is measured log2 fold change -0.007 or higher? CN1CCc2c(c3ccccc3n2Cc2ccc(C(=O)NO)cc2)C1
Response given: no

Challenge: For this compound, is measured log2 fold change -0.007 or higher? CCn1cc(-c2ccnc3[nH]c(-c4cccc(CN(C)C)c4)cc23)c(-c2ccc(NC(=O)N(C)C)cc2)n1
Response given: no

Challenge: For this compound, is measured log2 fold change -0.007 or higher? NCC(=O)Nc1ccc(-n2nc(C(F)(F)F)cc2-c2ccc3c(ccc4ccccc43)c2)cc1
Response given: no

Challenge: For this compound, is measured log2 fold change -0.007 or higher? CN(C)CC(=O)Nc1ccc2[nH]c(=O)c3ccccc3c2c1
Response given: yes

Challenge: For this compound, is measured log2 fold change -0.007 or higher? CN1CCN(CCOc2cc(OC3CCOCC3)c3c(Nc4c(Cl)ccc5c4OCO5)ncnc3c2)CC1
Response given: yes

Challenge: For this compound, is measured log2 fold change -0.007 or higher? COc1cc(C(=O)O)ccc1NC(=O)[C@@H]1N[C@@H](CC(C)(C)C)[C@](C#N)(c2ccc(Cl)cc2F)[C@H]1c1cccc(Cl)c1F
Response given: no

Challenge: For this compound, is measured log2 fold change -0.007 or higher? COc1ccc(Cn2ccc3ccc(C(=O)NO)cc32)cc1
Response given: no

Challenge: For this compound, is measured log2 fold change -0.007 or higher? C[C@@H](N)c1ccc(C(=O)Nc2ccnc3[nH]ccc23)cc1
Response given: yes

Source: the supplement of paper PMC10849652
